# reported photoluminescence quantum yield; entries follow
experiment: photoluminescence quantum yield (fraction); solvent given as SMILES; details: in C1CCOC1
Keep the answer to the number alone.

Would you please look over these solved cases?
Prompt: Quick one: photoluminescence quantum yield for `CN(C)c1ccc(C#Cc2ccc(C=O)cc2)cc1` ?
Completion: 0.131

Prompt: How about `CN1c2ccc(C(=O)c3ccccc3)cc2Sc2cc(C(=O)c3ccccc3)ccc21` ?
Completion: 0.28

Prompt: What would you report for `CC(C)(C)c1ccc(C2=CC3=C(c4ccccc4)c4cc(-c5ccc(C(C)(C)C)cc5)c(-c5ccc(C(C)(C)C)cc5)n4[B-](F)(F)[N+]3=C2c2ccc(C(C)(C)C)cc2)cc1` ?
Completion: 0.28

Prompt: Could you do the same for `CCN(CC)/C(C)=N\c1ccc2c3c(cccc13)C(=O)c1ccccc1-2` , please?
Completion: 0.17

Prompt: Try `CSc1sc(C(N)=O)c2nnn(C)c(=O)c12` next.
Completion: 0.5

Prompt: Queued: `c1cc2ccc1-c1ccc(cc1)-c1sc(c3c1OCCO3)-c1ccc(cc1)-c1ccc(cc1)-c1sc(c3c1OCCO3)-c1ccc(cc1)-c1ccc(cc1)-c1sc-2c2c1OCCO2`
Completion: 0.34

Prompt: What about `CCCCCCOc1cc(C=C2c3ccccc3-c3ccccc32)c(OCCCCCC)cc1C=C1c2ccccc2C=Cc2ccccc21` ?
Completion: 0.0013

Prompt: Now this one: `C(=C\c1ccccn1)/c1ccc(N(c2ccc(/C=C/c3ccccn3)cc2)c2ccc(-c3nc4ccccc4nc3-c3ccc(N(c4ccc(/C=C/c5ccccn5)cc4)c4ccc(/C=C/c5ccccn5)cc4)cc3)cc2)cc1`
Completion: 0.55

Prompt: Lookup `CCCCCCCCc1ccc(-c2c3cc(-c4cc(CCCCCCCC)c(-c5ccc(-c6sc(/C=C7\SC(=S)N(CC)C7=O)cc6CCCCCCCC)s5)s4)sc3c(-c3ccc(CCCCCCCC)s3)c3cc(-c4cc(CCCCCCCC)c(-c5ccc(-c6sc(/C=C7\SC(=S)N(CC)C7=O)cc6CCCCCCCC)s5)s4)sc23)s1`
Completion: 0.048

Prompt: Now consider `CN(C)c1ccc(/C=C/C=C/c2ccc(C#N)cc2)cc1` and answer again.
Completion: 0.098

Others:
Prompt: What does the record list as photoluminescence quantum yield for `CC(=O)c1c2c(cc3cc(N(C)C)ccc13)CCC2` ?
Completion: 0.34

Prompt: Same thing, different molecule: `c1ccc2c(P(c3c4ccccc4cc4ccccc34)c3c4ccccc4cc4ccccc34)c3ccccc3cc2c1`
Completion: 0

Prompt: Follow-up entry: `Cc1ccc(C2=C3C=CC([Te]c4ccccc4)=[N+]3[B-](F)(F)n3c([Te]c4ccccc4)ccc32)cc1`
Completion: 0.01

Prompt: Entry to check: `COc1cc(OC)cc(C2=C3C(C)=C(I)C(/C=C/c4c[nH]c5ccccc45)=[N+]3[B-](F)(F)n3c(/C=C/c4c[nH]c5ccccc45)c(I)c(C)c32)c1`
Completion: 0.12

###

experiment: photoluminescence quantum yield (fraction); solvent given as SMILES; conditions: in CC#N
The class of a record is decided solely by its measured photoluminescence quantum yield; consult Low = under 0.04, Medium = from 0.04 up to 0.3, High = 0.3 and over

Prompt: Band for `CCCCCCc1ccc2c3c(ccc2c1)O[B-](F)(F)[N+](c1cc([N+]2=Cc4c(ccc5cc(CCCCCC)ccc45)O[B-]2(F)F)cc([N+]2=Cc4c(ccc5cc(CCCCCC)ccc45)O[B-]2(F)F)c1)=C3` ?
Completion: Medium

New cases:
Prompt: State the band of `COc1ccc(-c2csc(/C(C#N)=C/c3c(Cl)cccc3Cl)n2)cc1`
Completion: Low

Prompt: # repeat for `Cc1cccc2nc3[nH]c(=O)[nH]c(=O)c3nc12`
Completion: Low

Prompt: Likewise for `CN1c2ccccc2CCc2ccccc21` ?
Completion: Low

Prompt: Next: `CN(C)c1ccc(/C=C2\CC/C(=C\c3ccc(N(C)C)cc3)C2=O)cc1`
Completion: Medium

Prompt: Also, `CCOC(=O)c1c(NC(C)(C)C)oc(-c2ccc(-c3ccccc3)cc2)c1C(=O)OCC` please.
Completion: Medium

Prompt: Moving on to the next compound: `CC1=[N+]2C(=C(c3ccccc3)c3c4c(c(C)n3[B-]2(F)F)CCc2ccccc2-4)C2=C1CCc1ccccc12`
Completion: Medium

Prompt: Another compound to look at: CC(=O)OC[C@H]1O[C@@H](OCC#Cc2ccc(C3=C4C(C)=CC(/C=C/c5ccc([N+](C)(C)C)cc5)=[N+]4[B-](F)(F)n4c(/C=C/c5ccc([N+](C)(C)C)cc5)cc(C)c43)cc2)[C@H](OC(C)=O)C(OC(C)=O)[C@@H]1OC(C)=O (stereo partly specified)
Completion: High

Prompt: // next record `COc1nc(Nc2ccc3c4c(cccc24)C(=O)c2ccccc2-3)nc(OC)n1`
Completion: High

Prompt: Same thing, different compound: `COc1ccc(C(=O)NN2C3=C(CC4=C2CCCC4=O)C(=O)CCC3)cc1`
Completion: High

Prompt: Would you mind doing C=CC1CN2CCC1CC2[C@@H](OCc1ccccc1)c1ccnc2ccc(O)cc12 (stereo partly specified) as well?
Completion: Low

Prompt: Similarly, `C=CCNc1ccc2c(ccc3oc4cc(=[N+](C)C)ccc-4nc32)c1` ?
Completion: Medium

Prompt: Follow-up entry: `CCCCCCCCN1c2ccc(C#Cc3ccc(OC)cc3)cc2Sc2cc(C=O)ccc21`
Completion: High

Prompt: Now consider `C1=Cc2ccccc2Cc2ccccc21` .
Completion: High

Prompt: Now consider `COc1ccc(-c2nc3c([nH]2)=C2C=C(Cl)S[C@@]2(C)[C@]2(C)SC(Cl)=CC=32)cc1` and answer again.
Completion: Low

Prompt: Further, for `CC(C)[Si]1(C(C)C)c2cc(N(C)C)ccc2-c2ccc(C(F)(F)F)cc21` ?
Completion: High

Prompt: Thanks! And `CCN(CC)c1ccc(-c2ccc(-c3nc(N4CCOCC4)c4ccccc4n3)s2)cc1` ?
Completion: Medium

Prompt: Try `COc1ccc(-n2nc(C#N)c(N3CCCC3)n2)cc1` next.
Completion: High
